Biological target: T1, human amylin receptor 3 (human, UniProt P30988 25-474; O60896 24-148)
T1 sequence (looked up) 1: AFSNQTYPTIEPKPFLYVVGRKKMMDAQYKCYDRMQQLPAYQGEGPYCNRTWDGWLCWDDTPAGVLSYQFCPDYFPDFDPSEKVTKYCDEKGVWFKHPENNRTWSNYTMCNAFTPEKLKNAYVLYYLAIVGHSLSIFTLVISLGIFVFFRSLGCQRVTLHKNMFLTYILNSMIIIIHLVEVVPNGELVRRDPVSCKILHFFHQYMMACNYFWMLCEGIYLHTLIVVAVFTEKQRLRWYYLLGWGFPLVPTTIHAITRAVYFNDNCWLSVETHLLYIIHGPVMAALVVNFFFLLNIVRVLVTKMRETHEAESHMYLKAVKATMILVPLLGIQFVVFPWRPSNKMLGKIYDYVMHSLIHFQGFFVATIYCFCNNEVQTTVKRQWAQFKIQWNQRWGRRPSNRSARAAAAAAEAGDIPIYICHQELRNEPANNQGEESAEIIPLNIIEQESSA
T1 sequence (looked up) 2: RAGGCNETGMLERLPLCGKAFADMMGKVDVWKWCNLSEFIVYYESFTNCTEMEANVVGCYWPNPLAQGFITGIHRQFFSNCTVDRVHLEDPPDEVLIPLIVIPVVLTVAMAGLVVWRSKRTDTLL
Assay: cell-based or functional assay
Ends that are not written are not given here.
property.label: Functional EC50, Human AMY3 (nM)
Write it as a number; the unit nM goes unstated.

Completed entries (count: 2):
INSERT INTO assay_data (binder, numeric_result) VALUES
  ('CNTATCATQRLANFLVHSSNNK(mPEG 40 kDa)GPILPPTNVGSNTY-NH2 (ends and bridges not checked, also called Cmpd 86) [[K^23(mPEG40KD)]-Cmpd 58]', 2.82),
  ('CNTATCATQRLANFLVHSSNNFK(mPEG40KD)PILPPTNVGSNTY-NH2 (ends and bridges not checked, also called Cmpd 80) [[K^24(mPEG40KD)]-Cmpd 62]', 0.41);

Attention now turns to another entry.
The recorded Functional EC50, Human AMY3 for CNTATCATQRLANFLVHSK(mPEG 40 kDa)NNFGPILPPTNVGSNTY-NH2 (ends and bridges not checked, also called Cmpd 91) [[K^20(mPEG40KD)]-Cmpd 58] is 5.51
